Tested on: NCI-H522
measurement_description: NCI anticancer screening, Non-Small Cell Lung Cancer NCI-H522
Type: cell-based
condition_context: Homo sapiens; NCI-H522, 10 μM; read-out: % Growth Inhibition (GI %)

compound	readout_units	inhibition at 10 µM
O=C(c1nc2ccccc2[nH]1)[C@H]1[C@H](c2ccccc2)C2CSCN2[C@]12C(=O)Nc1ccccc12 (mixture of isomers)	%	93.7
O=C(c1nc2ccccc2[nH]1)[C@H]1[C@H](c2ccccc2O)C2CSCN2[C@]12C(=O)Nc1ccccc12 (stereo partly drawn)	%	87.2
O=C(c1nc2ccccc2[nH]1)[C@H]1[C@H](c2ccc(Br)cc2)C2CSCN2[C@]12C(=O)Nc1ccccc12 (stereo partly drawn)	%	91.2

###

Examples of compounds with documented inhibition at 10 µM follow.
Test system: CCRF-CEM
measurement_description: NCI anticancer screening, Leukemia CCRF-CEM
Assay type: cell-based
condition_context: Homo sapiens, read-out: % Growth Inhibition (GI %)

compound	readout_units	inhibition at 10 µM
O=C(c1nc2ccccc2[nH]1)[C@H]1[C@H](c2ccccc2)C2CSCN2[C@]12C(=O)Nc1ccccc12 (mixture of isomers)	%	111
CN(C)c1ccc([C@@H]2C3CSCN3[C@]3(C(=O)Nc4ccccc43)[C@H]2C(=O)c2nc3ccccc3[nH]2)cc1 (stereo partly drawn)	%	99.9
O=C(c1nc2ccccc2[nH]1)[C@H]1[C@H](c2ccc(Cl)cc2Cl)C2CSCN2[C@]12C(=O)Nc1ccccc12 (stereo partly drawn)	%	60.1
O=C(c1nc2ccccc2[nH]1)[C@H]1[C@H](c2ccc(C(F)(F)F)cc2)C2CSCN2[C@]12C(=O)Nc1ccccc12 (stereo partly drawn)	%	95
O=C(c1nc2ccccc2[nH]1)[C@H]1[C@H](c2ccc(Cl)cc2)C2CSCN2[C@]12C(=O)Nc1ccccc12 (stereo partly drawn)	%	86.3
O=C(c1nc2ccccc2[nH]1)[C@H]1[C@H](c2ccccc2O)C2CSCN2[C@]12C(=O)Nc1ccccc12 (stereo partly drawn)	%	101

###

Test system: NCI-H522
measurement_description: NCI anticancer screening, Non-Small Cell Lung Cancer NCI-H522
Assay type: cell-based
condition_context: Homo sapiens; NCI-H522, 10 μM; read-out: % Growth Inhibition (GI %)

molecule	readout_units	inhibition at 10 µM
O=C(c1nc2ccccc2[nH]1)[C@H]1[C@H](c2cccc(O)c2)C2CSCN2[C@]12C(=O)Nc1ccccc12 (stereo partly shown)	%	83.9
O=C(c1nc2ccccc2[nH]1)[C@H]1[C@H](c2ccc(F)cc2)C2CSCN2[C@]12C(=O)Nc1ccccc12 (stereo partly shown)	%	79.5
O=C(c1nc2ccccc2[nH]1)[C@H]1[C@H](c2ccco2)C2CSCN2[C@]12C(=O)Nc1ccccc12 (stereo partly shown)	%	99.7
COc1cc([C@@H]2C3CSCN3[C@]3(C(=O)Nc4ccccc43)[C@H]2C(=O)c2nc3ccccc3[nH]2)cc(OC)c1OC (stereo partly shown)	%	88.3

###

Tested on: SK-MEL-28
measurement_description: NCI anticancer screening, Melanoma SK-MEL-28
Type: cell-based
condition_context: Homo sapiens; SK-MEL-28, 10 μM; read-out: % Growth Inhibition (GI %)
Examples of molecules with documented inhibition at 10 µM follow.
endpoint_name: inhibition at 10 µM (%)

molecule	test_value
O=C(c1nc2ccccc2[nH]1)[C@H]1[C@H](c2ccccc2)C2CSCN2[C@]12C(=O)Nc1ccccc12 (mixture of isomers)	103
O=C(c1nc2ccccc2[nH]1)[C@H]1[C@H](c2ccc(C(F)(F)F)cc2)C2CSCN2[C@]12C(=O)Nc1ccccc12 (stereo partly drawn)	97.7
O=C(c1nc2ccccc2[nH]1)[C@H]1[C@H](c2cccs2)C2CSCN2[C@]12C(=O)Nc1ccccc12 (stereo partly drawn)	105

###

Test system: LOX IMVI
measurement_description: NCI anticancer screening, Melanoma LOX IMVI
Assay type: cell-based
condition_context: Homo sapiens, read-out: % Growth Inhibition (GI %)
Rule: inhibition at 10 µM under 90% gives 0.0, otherwise 1.0.

compound	class_name
O=C(c1nc2ccccc2[nH]1)[C@H]1[C@H](c2ccc(Cl)cc2Cl)C2CSCN2[C@]12C(=O)Nc1ccccc12 (some centres unmarked)	0.0
O=C(c1nc2ccccc2[nH]1)[C@H]1[C@H](c2ccccc2)C2CSCN2[C@]12C(=O)Nc1ccccc12 (mixture of isomers)	1.0
CN(C)c1ccc([C@@H]2C3CSCN3[C@]3(C(=O)Nc4ccccc43)[C@H]2C(=O)c2nc3ccccc3[nH]2)cc1 (some centres unmarked)	1.0
O=C(c1nc2ccccc2[nH]1)[C@H]1[C@H](c2cccs2)C2CSCN2[C@]12C(=O)Nc1ccccc12 (some centres unmarked)	1.0
COc1cc([C@@H]2C3CSCN3[C@]3(C(=O)Nc4ccccc43)[C@H]2C(=O)c2nc3ccccc3[nH]2)cc(OC)c1OC (some centres unmarked)	1.0
Cc1ccc([C@@H]2C3CSCN3[C@]3(C(=O)Nc4ccccc43)[C@H]2C(=O)c2nc3ccccc3[nH]2)cc1 (mixture of isomers)	0.0
O=C(c1nc2ccccc2[nH]1)[C@H]1[C@H](c2ccc(Cl)cc2)C2CSCN2[C@]12C(=O)Nc1ccccc12 (some centres unmarked)	0.0
O=C(c1nc2ccccc2[nH]1)[C@H]1[C@H](c2ccc(Br)cc2)C2CSCN2[C@]12C(=O)Nc1ccccc12 (some centres unmarked)	0.0
O=C(c1nc2ccccc2[nH]1)[C@H]1[C@H](c2ccc(F)cc2)C2CSCN2[C@]12C(=O)Nc1ccccc12 (some centres unmarked)	1.0
O=C(c1nc2ccccc2[nH]1)[C@H]1[C@H](c2cccc(O)c2)C2CSCN2[C@]12C(=O)Nc1ccccc12 (some centres unmarked)	0.0

###

molecule	melting point
O=C(c1nc2ccccc2[nH]1)[C@H]1[C@H](c2ccc(Br)cc2)C2CSCN2[C@]12C(=O)Nc1ccccc12 (stereo partly drawn)	172 to 174 °C
COc1cc([C@@H]2C3CSCN3[C@]3(C(=O)Nc4ccccc43)[C@H]2C(=O)c2nc3ccccc3[nH]2)cc(OC)c1OC (stereo partly drawn)	245 to 247 °C
O=C(c1nc2ccccc2[nH]1)[C@H]1[C@H](c2cccc(O)c2)C2CSCN2[C@]12C(=O)Nc1ccccc12 (stereo partly drawn)	205 to 207 °C
O=C(c1nc2ccccc2[nH]1)[C@H]1[C@H](c2ccc(Cl)cc2Cl)C2CSCN2[C@]12C(=O)Nc1ccccc12 (stereo partly drawn)	235 to 237 °C
O=C(c1nc2ccccc2[nH]1)[C@H]1[C@H](c2ccc(Cl)cc2)C2CSCN2[C@]12C(=O)Nc1ccccc12 (stereo partly drawn)	210 to 212 °C
CN(C)c1ccc([C@@H]2C3CSCN3[C@]3(C(=O)Nc4ccccc43)[C@H]2C(=O)c2nc3ccccc3[nH]2)cc1 (stereo partly drawn)	178 to 180 °C
O=C(c1nc2ccccc2[nH]1)[C@H]1[C@H](c2cccc(F)c2)C2CSCN2[C@]12C(=O)Nc1ccccc12 (stereo partly drawn)	224 to 226 °C
O=C(c1nc2ccccc2[nH]1)[C@H]1[C@H](c2ccc(C(F)(F)F)cc2)C2CSCN2[C@]12C(=O)Nc1ccccc12 (stereo partly drawn)	185 to 187 °C
O=C(c1nc2ccccc2[nH]1)[C@H]1[C@H](c2ccccc2O)C2CSCN2[C@]12C(=O)Nc1ccccc12 (stereo partly drawn)	186 to 188 °C
O=C(c1nc2ccccc2[nH]1)[C@H]1[C@H](c2ccco2)C2CSCN2[C@]12C(=O)Nc1ccccc12 (stereo partly drawn)	240 to 242 °C
O=C(c1nc2ccccc2[nH]1)[C@H]1[C@H](c2cccs2)C2CSCN2[C@]12C(=O)Nc1ccccc12 (stereo partly drawn)	240 to 242 °C
O=C(c1nc2ccccc2[nH]1)[C@H]1[C@H](c2ccc(F)cc2)C2CSCN2[C@]12C(=O)Nc1ccccc12 (stereo partly drawn)	233 to 235 °C

###

Tested on: T-47D
measurement_description: NCI anticancer screening, Breast Cancer T-47D
Format: cell-based
condition_context: Homo sapiens, T47D, read-out: % Growth Inhibition (GI %)
Rule: inhibition at 10 µM under 80% gives class 0, otherwise class 1.

compound	class_name
O=C(c1nc2ccccc2[nH]1)[C@H]1[C@H](c2ccc(Cl)cc2)C2CSCN2[C@]12C(=O)Nc1ccccc12 (stereo partly shown) [Compound 6b]	class 0
O=C(c1nc2ccccc2[nH]1)[C@H]1[C@H](c2ccco2)C2CSCN2[C@]12C(=O)Nc1ccccc12 (stereo partly shown) [Compound 6n]	class 1
O=C(c1nc2ccccc2[nH]1)[C@H]1[C@H](c2ccc(Br)cc2)C2CSCN2[C@]12C(=O)Nc1ccccc12 (stereo partly shown) [Compound 6l]	class 0
COc1cc([C@@H]2C3CSCN3[C@]3(C(=O)Nc4ccccc43)[C@H]2C(=O)c2nc3ccccc3[nH]2)cc(OC)c1OC (stereo partly shown) [Compound 6i]	class 1
O=C(c1nc2ccccc2[nH]1)[C@H]1[C@H](c2ccc(F)cc2)C2CSCN2[C@]12C(=O)Nc1ccccc12 (stereo partly shown) [Compound 6f]	class 1
